Value source: patent US20150352108A1

- Tgt: IKKε (Homo sapiens, UniProt Q14164)
- Construct: His-tag; made in house; host or cells: Sf9 insect cells
- Sequence (Q14164 1-716): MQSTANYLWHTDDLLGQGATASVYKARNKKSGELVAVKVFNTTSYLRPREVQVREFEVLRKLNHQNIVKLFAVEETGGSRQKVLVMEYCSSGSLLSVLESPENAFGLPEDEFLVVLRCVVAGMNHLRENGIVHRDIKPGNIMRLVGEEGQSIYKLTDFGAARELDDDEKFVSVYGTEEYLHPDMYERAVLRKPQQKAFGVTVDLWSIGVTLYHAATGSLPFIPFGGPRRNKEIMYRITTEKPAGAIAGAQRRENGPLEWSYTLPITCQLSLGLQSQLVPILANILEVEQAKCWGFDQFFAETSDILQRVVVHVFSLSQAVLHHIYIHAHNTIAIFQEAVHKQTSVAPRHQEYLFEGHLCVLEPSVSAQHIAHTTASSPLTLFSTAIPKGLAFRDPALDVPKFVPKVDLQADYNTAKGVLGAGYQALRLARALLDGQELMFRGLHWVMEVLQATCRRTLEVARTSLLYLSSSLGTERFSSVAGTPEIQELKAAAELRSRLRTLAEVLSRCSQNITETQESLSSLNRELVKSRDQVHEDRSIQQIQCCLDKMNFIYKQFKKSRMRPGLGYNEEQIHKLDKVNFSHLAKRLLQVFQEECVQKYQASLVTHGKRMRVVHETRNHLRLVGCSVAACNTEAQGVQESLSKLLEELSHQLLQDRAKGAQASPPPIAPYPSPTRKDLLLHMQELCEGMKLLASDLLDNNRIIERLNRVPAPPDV
- Method notes: In-vitro IKKε kinase assay ([γ33]ATP filter-plate)
- Assay type: biochemical
- Applied conditions: text bins; read-out: IC50 for inhibition of the kinase activity of IKKε
pIC50: −log10 of the molar value.
Recorded metric: pIC50

| Molecule | Reported measurement |
| --- | --- |
| COc1ccc(Nc2nccc(-c3ccc(OC4CCOCC4)c(C#N)c3)n2)cc1OCCCN1CCOCC1 [compound 529] | > 8.30 |
| CCN1CCN(c2ccc(-c3ccnc(Nc4ccc(N5CCOCC5)cc4)n3)cc2C#N)CC1 [Example 123] | 7.30 to 8.30 |
| C[C@H](O)C(=O)N1CC(Oc2ccc(-c3ccnc(Nc4ccc(N5CCOCC5)cc4)n3)cc2C#N)C1 [Example 249] | 6.30 to 7.30 |
| CC(=O)Nc1ccc(-c2ccnc(Nc3ccc(N4CCOCC4)cc3)n2)cc1C#N [Example 117] | 7.30 to 8.30 |
| COc1cc(Nc2nccc(-c3ccc(OC4CCOCC4)c(C#N)c3)n2)ccc1S(=O)(=O)N(C)C1CCN(C)CC1 [Example 212] | > 8.30 |
| N#Cc1cc(-c2ccnc(Nc3ccc(F)c(OCC4COCCN4)c3)n2)ccc1OC1CCOCC1 (stereo not shown) [compound 545] | > 8.30 |
| COc1ccc(-c2ccnc(Nc3ccccc3)n2)cc1C#N [compound 299] | 7.30 to 8.30 |
| CN(C)S(=O)(=O)Cc1ccc(Nc2nccc(-c3ccc(OC4CCOCC4)c(C#N)c3)n2)cc1 [compound 401] | > 8.30 |
| COc1ccc(-c2ccnc(Nc3ccc(S(N)(=O)=O)cc3)n2)cc1C#N [compound 323] | 7.30 to 8.30 |
| CCN(CC)CCOCCOc1cc(Nc2nccc(-c3ccc(OC4CCOCC4)c(C#N)c3)n2)ccc1OC [compound 531] | > 8.30 |
| COc1ccc(Nc2nccc(-c3ccc(NC(=O)C(C)C)c(C#N)c3)n2)cc1OCCCN1CCOCC1 [compound 433] | 7.30 to 8.30 |
| COc1ccc(-c2ccnc(Nc3ccc(OCCN4CCOCC4)c(OC)c3)n2)cc1C#N [Example 273] | 7.30 to 8.30 |
| CCN1CCN(Cc2ccc(Nc3nccc(-c4ccc(OC5CCN(C(=O)[C@H](C)O)CC5)c(C#N)c4)n3)cc2)CC1 [compound 508] | 7.30 to 8.30 |
| N#Cc1cc(-c2ccnc(Nc3ccc(N4CCOCC4)cc3)n2)ccc1OC1CCN(C(=O)CO)C1 (stereo not shown) [Example 96] | > 8.30 |
| COc1ccc(Nc2nccc(-c3ccc(OC4CCOCC4)c(C#N)c3)n2)cc1OCC(N)=O [Example 132] | > 8.30 |
| COc1ccc(-c2ccnc(Nc3cccc(NC(=O)NCCCO)c3)n2)cc1C#N [compound 310] | 7.30 to 8.30 |
